// data source = paper doi:10.1101/2020.05.01.070730

Kd by entry:
MEASUREMENT_TARGET: T1, MutS R272A (Pseudomonas aeruginosa, UniProt Q9HY08 1-855, R272A)
T1 sequence: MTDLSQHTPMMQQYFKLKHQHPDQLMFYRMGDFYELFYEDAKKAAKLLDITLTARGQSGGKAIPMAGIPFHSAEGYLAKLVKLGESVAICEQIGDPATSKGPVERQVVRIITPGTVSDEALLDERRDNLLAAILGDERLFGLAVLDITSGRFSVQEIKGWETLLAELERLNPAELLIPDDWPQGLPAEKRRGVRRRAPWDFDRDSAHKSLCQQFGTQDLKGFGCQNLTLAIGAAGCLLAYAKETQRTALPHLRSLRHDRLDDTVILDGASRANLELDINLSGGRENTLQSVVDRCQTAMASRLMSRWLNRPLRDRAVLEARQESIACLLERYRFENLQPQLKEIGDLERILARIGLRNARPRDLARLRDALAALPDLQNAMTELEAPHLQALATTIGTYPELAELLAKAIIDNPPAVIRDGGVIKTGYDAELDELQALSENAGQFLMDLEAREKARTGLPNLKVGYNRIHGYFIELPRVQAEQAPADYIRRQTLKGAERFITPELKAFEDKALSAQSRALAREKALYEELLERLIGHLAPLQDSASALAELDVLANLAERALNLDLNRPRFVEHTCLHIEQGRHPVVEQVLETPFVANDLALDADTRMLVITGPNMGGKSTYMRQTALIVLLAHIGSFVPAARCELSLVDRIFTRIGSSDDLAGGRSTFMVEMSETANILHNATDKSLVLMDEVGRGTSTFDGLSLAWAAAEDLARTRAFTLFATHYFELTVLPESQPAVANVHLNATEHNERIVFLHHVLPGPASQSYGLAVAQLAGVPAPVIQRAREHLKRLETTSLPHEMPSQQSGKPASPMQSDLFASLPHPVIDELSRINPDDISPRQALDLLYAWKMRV
TEST_NAME: EMSA

BINDER	UNIT_TEXT	Kd
GT-dsDNA (GT 18 nt from 3' end) (dsDNA) DNA 1: ATGTGAATCAGTATGGTTGCTATCTGCTGAAGGAAAT DNA 2: ATTTCCTTCAGCAGATAGTAACCATACTGATTCACAT	nM	38.2
dsDNA (dsDNA) DNA 1: ATGTGAATCAGTATGGTTACTATCTGCTGAAGGAAAT DNA 2: ATTTCCTTCAGCAGATAGTAACCATACTGATTCACAT	nM	309
GT-pDNA (GT 8 nt from 3'-OH) (dsDNA) DNA 1: ATGTGAATCAGTATGGTTGCTATCTGC DNA 2: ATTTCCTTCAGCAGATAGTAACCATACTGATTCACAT	nM	49.3
pDNA (AT) (dsDNA) DNA 1: ATGTGAATCAGTATGGTTACTATCTGC DNA 2: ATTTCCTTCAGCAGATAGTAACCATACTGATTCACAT	nM	143
